These data points were gathered from patent US10165779B2.

System: Scirpus juncoides
Procedure Details: Paddy herbicidal activity test
Assay type: in vivo
Setup Conditions: 1g a.i./10a; irrigated paddy pot; 30 days
Method: After treating for 30 days in a glass greenhouse at an average atmospheric temperature of 30° C., the herbicidal efficacy thereof was investigated. Evaluation of herbicidal efficacy was carried out by comparing growth inhibition rate (%) with an untreated group, while evaluation of phytotoxicity was carried out by comparing growth inhibition rate (%) with the state of a complete eradication group, and were evaluated at 11 levels indicated below. […]
Value Type: herbicidal efficacy Scirpus juncoides

CCOC(=O)N(C(=O)OC)c1c(C#N)cnn1-c1nn2c(c1Cl)CCCC2 [Compound 1] | 9 (9: 90% to less than 100%)

Could you report herbicidal efficacy Scirpus juncoides for every entry in the following list?
1. CCOC(=O)N(C(=O)OCC)c1c(C#N)cnn1-c1nn2c(c1Cl)CCCC2 [Compound 6]
2. CCOC(=O)N(C(=O)OCC)c1c(C#N)cnn1-c1nn2c(c1Br)CCCC2 [Compound 8]
3. COC(=O)N(C(=O)OC)c1c(C#N)cnn1-c1nn2c(c1Br)CCCC2 [Compound 4]

1: 9 (9: 90% to less than 100%); 2: 9 (9: 90% to less than 100%); 3: 9 (9: 90% to less than 100%)

Could you report herbicidal efficacy Scirpus juncoides for every entry in the following list?
1. C=CCOC(=O)N(C(=O)OCC=C)c1c(C#N)cnn1-c1nn2c(c1Cl)CCCC2 [Compound 14]
2. COC(=O)N(C(=O)OC)c1c([N+](=O)[O-])cnn1-c1nn2c(c1Br)CCCC2 [Compound 5]

1: 9 (9: 90% to less than 100%); 2: 10 (10: 100%)

---

System: Oryza sativa
Procedure Details: Paddy herbicidal activity test, phytotoxicity to transplanted rice
Assay type: in vivo
Setup Conditions: 1g a.i./10a; rice transplanted at 2.0 leaf stage; 30 days
Value Type: phytotoxicity Oryza sativa

COC(=O)N(C(=O)OC)c1c([N+](=O)[O-])cnn1-c1nn2c(c1Br)CCCC2 [Compound 5] | 1 (1: 10% to less than 20%)

Let us move to another entry and its phytotoxicity Oryza sativa.
Recorded phytotoxicity Oryza sativa of C=CCOC(=O)N(C(=O)OCC=C)c1c(C#N)cnn1-c1nn2c(c1Cl)CCCC2 [Compound 14] , please.
1 (1: 10% to less than 20%)

---

Tested on: Digitaria ciliaris
Procedure Details: Weed foliar treatment test (Test 3, 1.0 to 2.0 leaf stage)
Type: in vivo
Setup Conditions: 5g a.i./10a; foliar spray at 1.0 to 2.0 leaf stage of Digitaria ciliaris; 3 weeks
Hi there, I'd appreciate the recorded herbicidal efficacy Digitaria ciliaris for every entry that follows.

These recorded examples may help you get a feel for the data.
CCOC(=O)N(C(=O)OCC)c1c(C#N)cnn1-c1nn2c(c1Cl)CCCC2 [Compound 6] | 10 (10: 100%)
COC(=O)N(C(=O)OC)c1c(C#N)cnn1-c1nn2c(c1Br)CCCC2 [Compound 4] | 10 (10: 100%)
COC(=O)N(C(=O)OC)c1c([N+](=O)[O-])cnn1-c1nn2c(c1Br)CCCC2 [Compound 5] | 9 (9: 90% to less than 100%)

Could you report herbicidal efficacy Digitaria ciliaris for every entry in the following list?
1. C=CCOC(=O)N(C(=O)OCC=C)c1c(C#N)cnn1-c1nn2c(c1Cl)CCCC2 [Compound 14]
2. CCOC(=O)N(C(=O)OC)c1c(C#N)cnn1-c1nn2c(c1Cl)CCCC2 [Compound 1]
3. CCOC(=O)N(C(=O)OCC)c1c(C#N)cnn1-c1nn2c(c1Br)CCCC2 [Compound 8]

1: 10 (10: 100%); 2: 9 (9: 90% to less than 100%); 3: 10 (10: 100%)
